Target: T1, human 5T4 antigen (human, UniProt Q13641 32-355, limits assumed)
T1 sequence: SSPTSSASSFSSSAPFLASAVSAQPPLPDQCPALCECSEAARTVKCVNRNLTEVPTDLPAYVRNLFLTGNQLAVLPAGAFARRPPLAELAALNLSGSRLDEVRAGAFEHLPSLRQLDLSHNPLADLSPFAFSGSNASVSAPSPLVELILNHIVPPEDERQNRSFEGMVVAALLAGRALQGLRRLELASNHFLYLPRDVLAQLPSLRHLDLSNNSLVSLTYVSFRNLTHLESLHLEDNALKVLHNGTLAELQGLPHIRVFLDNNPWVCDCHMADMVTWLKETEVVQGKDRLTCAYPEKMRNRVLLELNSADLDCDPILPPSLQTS
Test: BIACORE (SPR); human 5T4 antigen immobilized on CM5 chip
recorded endpoint: koff (s⁻¹)
Please respond with the number in s⁻¹ and leave the unit unwritten.

Req: Would you mind telling me what koff value was observed for chimeric A1 antibody bearing C67F mutation (antibody, V domains shown, also called Chimeric A1 + C67F; ChiA1+C67F) VH: QIQLVQSGPELKKPGETVKISCKASGYTFTNFGMNWVKQGPGEGLKWMGWINTNTGEPRYAEEFKGRFAFSLETTASTAYLQINNLKNEDTATYFCARDWDGAYFFDYWGQGTTLTVSS VL: SIVMTQTPKFLLVSAGDRVTITCKASQSVSNDVAWYQQKPGQSPKLLINFATNRYTGVPNRFTGSGYGTDFTFTISTVQAEDLALYFCQQDYSSPWTFGGGTKLEIK ?
Resp: 6.3e-05
